tested on: pigweed; assay: Test A pre-/postemergence herbicide test; type: in vivo, Amaranthus retroflexus; details: preemergence, 500 g ai/ha; 0 to 100 scale
observedProperty: Plant response rating, Pigweed
I only need the number, thanks.

INPUT: Tell me Plant response rating, Pigweed reported for Cc1ccccc1NC(=O)C1C(=O)NCC1c1cccc(C(F)(F)F)c1 (racemic)
OUTPUT: 0

INPUT: Tell me Plant response rating, Pigweed reported for N#Cc1cccc(C2CNC(=O)C2C(=O)Nc2ccccc2F)c1 (racemic)
OUTPUT: 0

INPUT: Tell me Plant response rating, Pigweed reported for O=C1NCC(c2cccc(OC(F)(F)C(F)F)c2)C1C(=O)Nc1cccc(F)c1F (racemic)
OUTPUT: 80

INPUT: Tell me Plant response rating, Pigweed reported for Cc1cc(C2CNC(=O)C2C(=O)Nc2ccc(F)c(F)c2F)ccc1F (racemic)
OUTPUT: 0

INPUT: Tell me Plant response rating, Pigweed reported for Cc1ccc(C2CNC(=O)C2C(=O)Nc2ccc(F)cc2F)cc1F (racemic)
OUTPUT: 0

----------
test system: morningglory; experiment: Test A pre-/postemergence herbicide test; assay type: in vivo, Ipomoea spp.; details: Postemergence, 500 g ai/ha; 0 to 100 scale (0 no effect, 100 complete control)
Exercise: for every item that follows, state its recorded Plant response rating, Morningglory.

INPUT: Tell me Plant response rating, Morningglory reported for O=C1NCC(c2ccc(Cl)c(Cl)c2)C1C(=O)Nc1ccccc1F (racemic)
OUTPUT: 0

INPUT: Tell me Plant response rating, Morningglory reported for O=C1NCC(c2ccc3c(c2)OC(F)(F)O3)C1C(=O)Nc1ccccc1F (stereo not drawn)
OUTPUT: 0

INPUT: Tell me Plant response rating, Morningglory reported for O=C1NCC(c2cc(F)c(F)cc2F)C1C(=O)Nc1cccc(F)c1F (stereo not drawn)
OUTPUT: 0

INPUT: Tell me Plant response rating, Morningglory reported for O=C1NCC(c2ccc(F)c(C(F)(F)F)c2)C1C(=O)Nc1cccc(F)c1F (racemic)
OUTPUT: 30

INPUT: Tell me Plant response rating, Morningglory reported for N#Cc1cccc(C2CNC(=O)C2C(=O)Nc2ccccc2F)c1 (racemic)
OUTPUT: 10

INPUT: Tell me Plant response rating, Morningglory reported for O=C1NCC(c2ccc(C(F)(F)F)cc2F)C1C(=O)Nc1ccccc1C(F)(F)F (racemic)
OUTPUT: 0

INPUT: Tell me Plant response rating, Morningglory reported for COc1cccc(C2CNC(=O)C2C(=O)Nc2ccccc2F)c1 (racemic)
OUTPUT: 0

INPUT: Tell me Plant response rating, Morningglory reported for O=C1NCC(c2ccc(F)c(F)c2)C1C(=O)Nc1ccccn1 (stereo not drawn)
OUTPUT: 50

INPUT: Tell me Plant response rating, Morningglory reported for O=C1NCC(c2ccc(F)c(F)c2)C1C(=O)Nc1cccc(C(F)(F)F)c1 (racemic)
OUTPUT: 0

INPUT: Tell me Plant response rating, Morningglory reported for O=C1NCC(c2ccc(F)c(F)c2)C1C(=O)Nc1ccccc1C(F)(F)F (racemic)
OUTPUT: 0

INPUT: Tell me Plant response rating, Morningglory reported for O=C1NCC(c2ccc(C(F)(F)F)cc2F)C1C(=O)Nc1cccc(F)c1F (racemic)
OUTPUT: 50

INPUT: Tell me Plant response rating, Morningglory reported for O=C1NCC(c2ccccc2)C1C(=O)Nc1ccccc1Cl (racemic)
OUTPUT: 0

INPUT: Tell me Plant response rating, Morningglory reported for CC1NC(=O)C(C(=O)Nc2ccccc2C(F)(F)F)C1c1ccc(F)c(F)c1 (mixture of isomers)
OUTPUT: 0

INPUT: Tell me Plant response rating, Morningglory reported for Cc1cccc(C2CNC(=O)C2C(=O)Nc2ccccc2F)c1 (racemic)
OUTPUT: 0

INPUT: Tell me Plant response rating, Morningglory reported for O=C1NCC(c2ccc(Cl)c(F)c2)C1C(=O)Nc1cccc(F)c1F (stereo not drawn)
OUTPUT: 0

----------
test system: wheat; test: Test A pre-/postemergence herbicide test; type: in vivo, Triticum aestivum; conditions: Postemergence, 500 g ai/ha; 0 to 100 scale (0 no effect, 100 complete control)
observedProperty: Plant response rating, Wheat
I only need the number, thanks.

INPUT: Tell me Plant response rating, Wheat reported for O=C1NCC(c2ccc(Cl)o2)C1C(=O)Nc1cccc(F)c1F (stereo not drawn) [Compound 285]
OUTPUT: 0

INPUT: Tell me Plant response rating, Wheat reported for CSc1cccc(C2CNC(=O)C2C(=O)Nc2ccccc2Cl)c1 (stereo not drawn) [Compound 291]
OUTPUT: 0

INPUT: Tell me Plant response rating, Wheat reported for Cc1cccc(C2CN(C(=O)OC(C)(C)C)C(=O)C2C(=O)Nc2ccccc2F)c1 (stereo not drawn) [Compound 37]
OUTPUT: 0

INPUT: Tell me Plant response rating, Wheat reported for Cc1ccccc1NC(=O)C1C(=O)NCC1c1cccc(C(F)(F)F)c1 (racemic) [Compound 109]
OUTPUT: 60

INPUT: Tell me Plant response rating, Wheat reported for O=C1NCC(c2ccc(Cl)c(Cl)c2)C1C(=O)Nc1ccc(F)c(F)c1F (stereo not drawn) [Compound 286]
OUTPUT: 0

INPUT: Tell me Plant response rating, Wheat reported for O=C1NCC(c2ccc(F)c(F)c2)C1C(=O)Nc1ccccn1 (stereo not drawn) [Compound 45]
OUTPUT: 0

INPUT: Tell me Plant response rating, Wheat reported for O=C1NCC(c2ccc(Cl)c(F)c2)C1C(=O)Nc1cccc(F)c1F (stereo not drawn) [Compound 52]
OUTPUT: 30

INPUT: Tell me Plant response rating, Wheat reported for O=C1NCC(c2ccc(Cl)c(Cl)c2)C1C(=O)Nc1ccccc1Cl (racemic) [Compound 273]
OUTPUT: 0

INPUT: Tell me Plant response rating, Wheat reported for O=C1NCC(c2cccc(I)c2)C1C(=O)Nc1cccc(F)c1F (stereo not drawn) [Compound 327]
OUTPUT: 20

INPUT: Tell me Plant response rating, Wheat reported for O=C1NCC(c2ccsc2)C1C(=O)Nc1ccccc1F (racemic) [Compound 29]
OUTPUT: 0

INPUT: Tell me Plant response rating, Wheat reported for CN1CC(c2ccc(C(F)(F)F)cc2)C(C(=O)Nc2cccc(F)c2F)C1=O (stereo not drawn) [Compound 306]
OUTPUT: 60

INPUT: Tell me Plant response rating, Wheat reported for CC(C)c1cccc(C2CNC(=O)C2C(=O)Nc2cccc(F)c2F)c1 (stereo not drawn) [Compound 319]
OUTPUT: 50

INPUT: Tell me Plant response rating, Wheat reported for O=C1NCC(c2ccc(F)c(F)c2)C1C(=O)Nc1ccccc1OC(F)(F)F (stereo not drawn) [Compound 54]
OUTPUT: 0

INPUT: Tell me Plant response rating, Wheat reported for CC1NC(=O)C(C(=O)Nc2ccccc2C(F)(F)F)C1c1ccc(F)c(F)c1 (mixture of isomers) [Compound 9]
OUTPUT: 0

INPUT: Tell me Plant response rating, Wheat reported for O=C1NCC(c2ccc(OC(F)(F)F)cc2)C1C(=O)Nc1ccccc1C(F)(F)F (racemic) [Compound 258]
OUTPUT: 30

INPUT: Tell me Plant response rating, Wheat reported for O=C1NCC(c2ccc(F)c(Cl)c2)C1C(=O)Nc1ccccc1F (stereo not drawn) [Compound 60]
OUTPUT: 50

INPUT: Tell me Plant response rating, Wheat reported for CSc1cccc(C2CNC(=O)C2C(=O)Nc2ccccc2F)c1 (stereo not drawn) [Compound 287]
OUTPUT: 0

INPUT: Tell me Plant response rating, Wheat reported for O=C1NCC(c2cc(F)c(F)c(F)c2)C1C(=O)Nc1cccc([N+](=O)[O-])c1 (stereo not drawn) [Compound 49]
OUTPUT: 0

----------
test system: oilseed rape; assay: Test C pre-/postemergence herbicide test; format: in vivo, Brassica napus; settings: Preemergence, 31 g ai/ha; scale 0 to 100, 0 is no effect and 100 is complete control
Exercise: for every item that follows, state its recorded Oilseed Rape plant response rating.

INPUT: Tell me Oilseed Rape plant response rating reported for O=C1NCC(c2ccc(F)c(C(F)(F)F)c2)C1C(=O)Nc1cccc(F)c1F (racemic)
OUTPUT: 0

INPUT: Tell me Oilseed Rape plant response rating reported for O=C1NCC(c2ccc(Cl)cc2)C1C(=O)Nc1cccc(F)c1F (centres unmarked)
OUTPUT: 0

INPUT: Tell me Oilseed Rape plant response rating reported for CC(C)c1cccc(C2CNC(=O)C2C(=O)Nc2ccccc2F)c1 (centres unmarked)
OUTPUT: 0

INPUT: Tell me Oilseed Rape plant response rating reported for O=C1NCC(c2cccc(Br)c2)C1C(=O)Nc1ccc(F)c(F)c1F (centres unmarked)
OUTPUT: 0

INPUT: Tell me Oilseed Rape plant response rating reported for O=C1NCC(c2cccc(C(F)(F)F)c2)C1C(=O)Nc1ccc(F)c(F)c1F (centres unmarked)
OUTPUT: 50

INPUT: Tell me Oilseed Rape plant response rating reported for O=C1NCC(c2cccc(OC(F)F)c2)C1C(=O)Nc1cccc(F)c1F (centres unmarked)
OUTPUT: 0

INPUT: Tell me Oilseed Rape plant response rating reported for O=C1NCC(c2ccc(C(F)(F)F)cc2)C1C(=O)Nc1cccc(F)c1F (centres unmarked)
OUTPUT: 5

INPUT: Tell me Oilseed Rape plant response rating reported for O=C1NCC(c2cccc(OC(F)F)c2)C1C(=O)Nc1ccccc1F (centres unmarked)
OUTPUT: 0
